studySystem: AR protein (Homo sapiens, UniProt P10275, T878A)
Construct: host or cells: LNCaP FGC
Sequence (P10275 whole entry T878A): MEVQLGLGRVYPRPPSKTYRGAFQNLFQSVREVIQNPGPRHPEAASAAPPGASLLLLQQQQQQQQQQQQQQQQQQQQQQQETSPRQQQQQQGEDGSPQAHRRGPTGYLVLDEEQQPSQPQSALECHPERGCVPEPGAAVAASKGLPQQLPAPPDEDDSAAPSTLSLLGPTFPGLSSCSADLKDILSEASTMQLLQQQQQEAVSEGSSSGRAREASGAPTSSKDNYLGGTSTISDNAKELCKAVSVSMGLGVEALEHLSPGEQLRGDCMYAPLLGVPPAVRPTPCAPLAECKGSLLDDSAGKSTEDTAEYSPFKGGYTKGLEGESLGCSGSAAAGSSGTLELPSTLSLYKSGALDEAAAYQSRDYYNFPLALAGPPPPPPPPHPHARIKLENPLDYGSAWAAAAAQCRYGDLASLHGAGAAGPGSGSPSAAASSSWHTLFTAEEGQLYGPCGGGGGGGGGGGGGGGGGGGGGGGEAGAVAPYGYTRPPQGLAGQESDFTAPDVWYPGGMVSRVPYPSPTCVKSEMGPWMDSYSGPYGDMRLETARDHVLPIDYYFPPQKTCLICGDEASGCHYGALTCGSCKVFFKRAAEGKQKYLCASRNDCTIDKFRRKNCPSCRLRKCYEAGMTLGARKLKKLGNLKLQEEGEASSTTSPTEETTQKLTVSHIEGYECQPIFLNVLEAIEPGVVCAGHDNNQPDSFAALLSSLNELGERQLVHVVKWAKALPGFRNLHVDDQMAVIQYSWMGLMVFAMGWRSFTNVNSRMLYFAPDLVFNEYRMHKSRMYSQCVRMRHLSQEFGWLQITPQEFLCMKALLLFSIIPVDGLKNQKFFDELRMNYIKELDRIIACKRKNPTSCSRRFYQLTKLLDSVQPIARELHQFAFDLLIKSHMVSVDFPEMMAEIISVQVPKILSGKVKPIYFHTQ
assayInfo: AR protein degradation in LNCaP cells (Western blot)
Assay type: cell-based
conditionSummary: 100 nM, 8 hours
Here the recorded Degradation of AR protein in LNCaP cells, 100 nM (%) is given for each entry.
parameterMeasured: Degradation of AR protein in LNCaP cells, 100 nM (%)

{"columns": ["molecule", "assayValue"],
 "data": [
  ["CC1(C)[C@H](NC(=O)c2ccc(N3CCC(CN4CCC5(CCc6cc(C(=O)N[C@H]7CCC(=O)NC7=O)c(F)cc6O5)CC4)CC3)nc2)C(C)(C)[C@H]1Oc1ccc(C#N)c(Cl)c1", "91%"],
  ["COc1cc(O[C@H]2C(C)(C)[C@H](NC(=O)c3ccc(N4CCC(CN5CCC6(CC5)COc5c6ccc6c5n(C)c(=O)n6C5CCC(=O)NC5=O)CC4)nn3)C2(C)C)ccc1C#N (relative stereo)", "43%"],
  ["N#Cc1ccc(O[C@H]2CC[C@H](NC(=O)c3ccc(N4CCC(N5CC6(CCC7(CC6)COc6c7ccc7c6CN(C6CCC(=O)NC6=O)C7=O)C5)CC4)nn3)CC2)cc1Cl (relative stereo)", "48%"],
  ["CC1(CN2CCC3(CCc4cc(C(=O)N[C@H]5CCC(=O)NC5=O)c(F)cc4O3)CC2)CCN(c2ccc(C(=O)N[C@H]3C(C)(C)[C@H](Oc4ccc(C#N)c(Cl)c4)C3(C)C)cc2)CC1", "15%"],
  ["COc1cc(O[C@H]2C(C)(C)[C@H](NC(=O)c3ccc(N4CCC(CN5CCN6c7ccc(N[C@H]8CCC(=O)NC8=O)cc7OC[C@@H]6C5)CC4)cc3)C2(C)C)ccc1C#N", "48%"]
]}
